# Method: StAR promoter reporter inhibitors, counter-screen for LRH-1 inverse agonist project, cell-based, luminescence, high throughput (AID 651611)
# Condition Context: StAR promoter luciferase reporter counterscreen, at 3.6 µM, stronger effect = higher value

- Molecule: "O=C(COc1ccc2c3c(c(=O)oc2c1)CCC3)NCc1ccncc1"
  inhibition, %: 0.83
- Molecule: "COc1cc(NC(=O)CCl)ccc(=O)c1"
  inhibition, %: 47.9
- Molecule: "Cc1cc(SC#N)cc(C)c1NC(=O)CCl"
  inhibition, %: 27.4
- Molecule: "COc1cc(CCNc2ccc3nnc(-c4ccccc4)n3n2)cc(OC)c1OC"
  inhibition, %: 50.7
- Molecule: "COc1ccc(NC(=O)CN2C(=O)C(C)SC(C)C2=O)c(OC)c1 (configuration not stated)"
  inhibition, %: 4.55
- Molecule: "CCCc1cc(=O)oc2cc3occ(C)c3cc12"
  inhibition, %: -0.89
- Molecule: "COC(=O)c1ccc(NC(=O)CSc2nc3ncccc3[nH]2)cc1"
  inhibition, %: -4.1
- Molecule: "O=S(=O)(c1ccc(-c2csc(Nc3ccc(F)cc3)n2)cc1)N1CCCC1"
  inhibition, %: 15.5
- Molecule: "CC1(C)CC(N2CCN(C(c3ccccc3)c3ccccc3)CC2)=CC(=[N+]2CCCCC2)C1"
  inhibition, %: 80.6
- Molecule: "CN(C(=O)OC(C)(C)C)c1ccc(-c2nc3ccccc3s2)cc1"
  inhibition, %: 75.6
- Molecule: "COc1ccc(CCNC(=O)COC(=O)c2cccn2C)cc1"
  inhibition, %: 19
- Molecule: "COc1cc([N+](=O)[O-])ccc1NC(=O)Cn1ccsc1=N"
  inhibition, %: 4.07
- Molecule: "C#Cc1cccc(Nc2nc(NC(C)C)nc3ccsc23)c1"
  inhibition, %: 17.7
- Molecule: "O=C(Nc1ccc(S(=O)(=O)N2CCCC2)cc1)c1ccc([N+](=O)[O-])o1"
  inhibition, %: 26.2
- Molecule: "Cc1ncc(CO)c(/C=N/NC(=O)c2cc3c(s2)CCCC3)c1O"
  inhibition, %: 76.8
- Molecule: "CC(C)(C)c1ccc(C(=O)Nc2sc3c(c2C(=O)O)CCC3)cc1"
  inhibition, %: 77.2
- Molecule: "Cc1c(/C(O)=C2/C(=O)C(=O)N(Cc3cccnc3)C2c2ccccn2)cnn1-c1ccccc1 (configuration not stated)"
  inhibition, %: 42
- Molecule: "Cc1ccc(C)c(NC(=O)CSc2nnc(-c3n[nH]c4ccccc34)o2)c1"
  inhibition, %: 10.3
- Molecule: "CC(/C=C(\\NC(=O)c1ccccc1)C(=O)N=Nc1c(O)[nH]c2ccc(C)cc12)=C\\c1ccccc1"
  inhibition, %: 34.2
- Molecule: "O=C(Nc1nc(-c2ccccc2)cs1)c1ccccc1NS(=O)(=O)c1ccc(F)cc1"
  inhibition, %: 66.6
- Molecule: "NCC(=O)Nc1ccc(Cl)cc1C(=O)c1ccc[nH]1"
  inhibition, %: 49.4
- Molecule: "COc1ccnc(Oc2ccccc2)c1C(=O)N/C=N/OCc1ccccc1F"
  inhibition, %: 12.8

----------
# Target System: Protein phosphatase methylesterase 1 (Homo sapiens) (UniProt Q9Y570)
# Sequence (Q9Y570 whole entry, looked up): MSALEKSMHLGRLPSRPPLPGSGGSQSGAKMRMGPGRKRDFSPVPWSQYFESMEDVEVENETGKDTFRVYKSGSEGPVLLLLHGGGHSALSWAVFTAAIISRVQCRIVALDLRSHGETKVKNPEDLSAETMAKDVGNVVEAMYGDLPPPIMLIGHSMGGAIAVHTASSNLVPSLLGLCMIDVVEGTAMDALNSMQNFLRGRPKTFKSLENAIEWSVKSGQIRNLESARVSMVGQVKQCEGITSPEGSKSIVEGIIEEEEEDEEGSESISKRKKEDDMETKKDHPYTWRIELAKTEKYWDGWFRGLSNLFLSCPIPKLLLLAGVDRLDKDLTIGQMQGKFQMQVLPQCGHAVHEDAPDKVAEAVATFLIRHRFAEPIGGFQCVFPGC
# Method: PME-1 inhibitor activity retest, confirmation, biochemical, fluorescence polarization, FP-Rh probe, triplicate (AID 2171);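 further: 0% = enzyme with DMSO and 100% = wells lacking PME-1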
# Condition Context: recombinant PME-1, FP-Rh probe fluorescence polarization; at 5.9 µM; stronger effect = higher value
Class T: inhibition at least 40%. Class F: inhibition below 40%.

- Molecule: "CCOc1cc(/C=N/NC(=O)c2cccc([N+](=O)[O-])c2)ccc1OS(=O)(=O)c1ccccc1"
  Classification: "F"
- Molecule: "COc1ccc(Br)cc1CNc1ccc(O)cc1"
  Classification: "F"
- Molecule: "c1cc2c3c(cccc3c1)NC1(CCC3(CC1)Nc1cccc4cccc(c14)N3)N2"
  Classification: "F"
- Molecule: "COc1ccc(NC(=S)NNc2ccc(S(=O)(=O)Nc3ccccc3C(=O)O)cc2[N+](=O)[O-])cc1"
  Classification: "T"
- Molecule: "COc1cccc(C(=O)Oc2ccc(/C=N/Nc3ccc(C(=O)O)cc3)cc2OC)c1"
  Classification: "F"
- Molecule: "Cc1cccc(OCCn2cc(/C=N/NC(=O)c3ccncc3)c3ccccc32)c1"
  Classification: "F"
- Molecule: "Cc1cccnc1Nc1nc(-c2ccc(O)c(O)c2)cs1"
  Classification: "F"
- Molecule: "Cc1ccc(-n2[nH]c(C)c(/C=N/Nc3ccc([N+](=O)[O-])cc3[N+](=O)[O-])c2=O)cc1C"
  Classification: "F"
- Molecule: "O=Nc1c(O)c2ccccc2c2ccccc12"
  Classification: "T"
- Molecule: "C/C(=N\\NC(=O)c1ccc(N/N=C(\\C)c2ccc(O)cc2)cc1)c1ccc(O)cc1"
  Classification: "T"
- Molecule: "CCOC(=O)C(C)On1c(-c2ccccc2)nc2ccc([N+](=O)[O-])cc21 (stereo unspecified)"
  Classification: "F"
- Molecule: "COc1cccc(N2CCN(c3ncnc4c3[nH]c3ccc(F)cc34)CC2C)c1 (stereo unspecified)"
  Classification: "F"
- Molecule: "CCc1nnc(NC(=O)CSc2nc(C)c3c(c2C#N)CCCC3)s1"
  Classification: "F"
- Molecule: "CN(C)S(=O)(=O)c1ccc(-c2csc(N/N=C/c3ccc(O)cc3)n2)cc1"
  Classification: "F"
- Molecule: "CCN(CC(=O)Nc1c(F)cccc1F)C(=O)CCc1ccc(OC)cc1"
  Classification: "F"
- Molecule: "CC(C)Oc1ccc(S(=O)(=O)N2CCCCC2)cc1NC(=O)CN1C(=O)NC(C)(c2ccccc2)C1=O (stereo unspecified)"
  Classification: "T"
- Molecule: "CC1=Nc2ccccc2/C1=C\\c1sc(Nc2ccc(C)cc2)nc1O"
  Classification: "T"
- Molecule: "CCn1cc(C(=O)NCCCN2CCC(C)CC2)c(=O)c2cc(S(=O)(=O)N(C)C3CCCCC3)ccc21"
  Classification: "F"
- Molecule: "Cc1cc(C)c(NC(=O)COC(=O)c2cccc3c2C(=O)c2ccccc2C3=O)c(C)c1"
  Classification: "T"
- Molecule: "CC#CCN1c2ccccc2[C@]23C[C@@H](C(=O)OC)N(C(=O)c4cc(C)oc4C)C2=NC(C(=O)OC)=C(C(=O)OC)[C@H]13"
  Classification: "F"
- Molecule: "CCc1ccc(-c2cc(C(=O)N/N=C/c3c[nH]c4ccccc34)[nH]n2)cc1"
  Classification: "F"
- Molecule: "N#Cc1c(N)nc2c3c(sc(=N)c2c1N)NC(=O)CC3c1ccccc1 (stereo unspecified)"
  Classification: "F"
- Molecule: "O=c1cc(N2CCCCC2)c(-c2ccccc2)nn1Cc1c(Cl)cccc1Cl"
  Classification: "F"
- Molecule: "COc1ccc(OC)c(N2C(=O)CC(Cc3ccc(C)cc3)C2=O)c1 (stereo unspecified)"
  Classification: "F"
- Molecule: "COc1ccc(Nc2cnn(-c3nc4ccccc4s3)c(=O)c2Cl)cc1"
  Classification: "F"
- Molecule: "Oc1ccc(/C=C/c2ccc3cccc(O)c3n2)cc1Br"
  Classification: "F"
- Molecule: "Cc1ccccc1NC1=C/C(=N\\S(=O)(=O)c2cccs2)c2ccccc2C1=O"
  Classification: "F"
- Molecule: "CCn1c(=O)c2cc(C(=O)Nc3ccc(OC)cc3OC)sc2c2ccccc21"
  Classification: "F"
- Molecule: "Cn1c(=O)c(Nc2ccc(O)cc2)c2c3c(cccc31)C(=O)c1ccccc1-2"
  Classification: "F"
- Molecule: "O=c1[nH]nc(CNc2ccc(O)cc2)c2ccccc12"
  Classification: "F"
- Molecule: "COc1ccc2[nH]c(=O)c(-c3noc(-c4ccccc4)n3)cc2c1"
  Classification: "F"
- Molecule: "COc1ccc(C(=O)c2sc3nc(-c4ccccc4)ccc3c2N)cc1"
  Classification: "F"
- Molecule: "CCOc1ccc(/C=N/Nc2cc(N3CCOCC3)nc(C)n2)c(O)c1"
  Classification: "F"
- Molecule: "Cc1ccc(NS(=O)(=O)c2ccc(N/N=C/c3ccccc3OCC(=O)O)c([N+](=O)[O-])c2)c(C)c1"
  Classification: "T"
- Molecule: "C/C(=N/Nc1ccnc2cc(Cl)ccc12)c1ccc(N)cc1"
  Classification: "F"
- Molecule: "COc1cccc(NC(=O)Nc2nnc(N3CCCCC3C)s2)c1 (stereo unspecified)"
  Classification: "T"
- Molecule: "Cc1cccc(-n2c3nc(=O)[nH]c(=O)c-3cc3cc([N+](=O)[O-])ccc32)c1"
  Classification: "T"
- Molecule: "Cc1ccc(C(C)C)c(OCc2ccc(C(=O)N/N=C/c3ccc(O)cc3O)cc2)c1"
  Classification: "F"
- Molecule: "N=C1CCC(=N)c2c1c(O)c1ccccc1c2O"
  Classification: "F"
- Molecule: "CCOc1cccc(/C=N/NC(=S)Nc2cc(S(=O)(=O)N3CCOCC3)ccc2N2CCOCC2)c1O"
  Classification: "F"
- Molecule: "CC(C)Oc1ccc(CCC(=O)N/N=C/c2ccc3c(c2)OCO3)cc1"
  Classification: "F"

Entry source: PubChem BioAssay
